Origin of measurements: PubChem BioAssay (NCI)

# System: U251 CNS
# experiment.notes: NCI-60 one-dose screen, 48 h (100 = growth as untreated, 0 = no growth, -100 = all killed)
# experimental.conditions: 10 µM unless noted
The panel holds about 83,000 compounds, 20% with a hit somewhere; the sample as a whole holds those more often. Calls of active or inactive are those of the source. Rule for the calls: active = growth percent below 10; inactive = the rest.
observed.property: growth

O=C(/C=C\c1ccco1)/C=C/c1ccco1 ... 104% (inactive)
COc1ccc(NC(=O)c2cccc(C3CCc4c(cc(OC)c(OC)c4OC)O3)c2)cc1 (stereo not given) ... 23.4% (inactive)
C[N+](C)(C/C=C/c1ccccc1)Cc1ccccc1 ... 102% (inactive)
CC1(C)CC[C@]2(C(=O)N3CCOCC3)CC[C@]3(C)C(=CC[C@@H]4[C@@]5(C)C/C(=C/c6ccncc6)C(=O)C(C)(C)[C@@H]5CC[C@]43C)[C@@H]2C1 ... 18.4% (inactive)
Cc1[nH]c(C(=O)Nc2cccc(OC3CCNCC3)c2)c(Cl)c1Cl ... 63.9% (inactive)
Cc1ncc(C(=O)Nc2ccc(CN3CCN(C)CC3)c(C(F)(F)F)c2)cc1C#Cc1cnc(N)c2ccncc12 ... -92.7% (active)
Oc1c(CN2CCCC2)cc(COCc2ccccc2)c2cccnc12 ... 1.08% (active)
CCCCn1sc(=O)n(Cc2ccc(CNC(=O)OCc3ccc4c(Br)cc(Br)c(O)c4n3)cc2)c1=O ... 11.2% (inactive)

Exercise: Entry Cc1cscc(C)c1=S has what growth?
Key: 80% (inactive)

Exercise: Entry CC1O[C@@H]2C[C@@](O)([C@H]1O)n1c3ccccc3c3c4c(c5c6ccccc6n2c5c31)C(=O)NC4=O (stereo not given in full) has what growth?
Key: 24.8% (inactive)
